B1: EEHEE_rd4_0363 (parent)
chain: VTVDIKGMEYHFDNPEEAKKFAERMAKELGGELKVENGTLKVE

variants of: B1; assay: folding stability dG (cDNA display proteolysis); higher = more stable; conditions: PBS, room temperature
Quick reference: folding stability dG of the listed items.
Reply numerically in kcal/mol, unit not repeated.

[
  {
    "Mutation notation": "M25S",
    "Property": "folding stability dG",
    "Measured value": 0.692
  },
  {
    "Mutation notation": "D13I",
    "Property": "folding stability dG",
    "Measured value": 1.68
  },
  {
    "Mutation notation": "K6I",
    "Property": "folding stability dG",
    "Measured value": 1.81
  },
  {
    "Mutation notation": "H11D",
    "Property": "folding stability dG",
    "Measured value": 0.422
  },
  {
    "Mutation notation": "K20D",
    "Property": "folding stability dG",
    "Measured value": 1.7
  },
  {
    "Mutation notation": "N37H",
    "Property": "folding stability dG",
    "Measured value": 1.52
  },
  {
    "Mutation notation": "E16W",
    "Property": "folding stability dG",
    "Measured value": 1.98
  },
  {
    "Mutation notation": "F21I",
    "Property": "folding stability dG",
    "Measured value": -0.454
  },
  {
    "Mutation notation": "H11E",
    "Property": "folding stability dG",
    "Measured value": 0.894
  },
  {
    "Mutation notation": "L29W",
    "Property": "folding stability dG",
    "Measured value": 1.34
  }
]

So what does the record say about folding stability dG for T39K ?
2.43

So what does the record say about folding stability dG for L29Y ?
1.47

So what does the record say about folding stability dG for M8A ?
1.54

So what does the record say about folding stability dG for G38F ?
0.552

So what does the record say about folding stability dG for G30T ?
1

Reference for the values: the MegaScale stability set (Tsuboyama et al. 2023)
